biological target: Calcium-activated potassium channel subunit alpha-1 (Homo sapiens) (UniProt Q12791); assay: Activation of human BKCA alpha channel expressed in HEK293 cells assessed as increase of rubidium efflux after 10 mins; type: cell-based
Sequence (Q12791 whole entry): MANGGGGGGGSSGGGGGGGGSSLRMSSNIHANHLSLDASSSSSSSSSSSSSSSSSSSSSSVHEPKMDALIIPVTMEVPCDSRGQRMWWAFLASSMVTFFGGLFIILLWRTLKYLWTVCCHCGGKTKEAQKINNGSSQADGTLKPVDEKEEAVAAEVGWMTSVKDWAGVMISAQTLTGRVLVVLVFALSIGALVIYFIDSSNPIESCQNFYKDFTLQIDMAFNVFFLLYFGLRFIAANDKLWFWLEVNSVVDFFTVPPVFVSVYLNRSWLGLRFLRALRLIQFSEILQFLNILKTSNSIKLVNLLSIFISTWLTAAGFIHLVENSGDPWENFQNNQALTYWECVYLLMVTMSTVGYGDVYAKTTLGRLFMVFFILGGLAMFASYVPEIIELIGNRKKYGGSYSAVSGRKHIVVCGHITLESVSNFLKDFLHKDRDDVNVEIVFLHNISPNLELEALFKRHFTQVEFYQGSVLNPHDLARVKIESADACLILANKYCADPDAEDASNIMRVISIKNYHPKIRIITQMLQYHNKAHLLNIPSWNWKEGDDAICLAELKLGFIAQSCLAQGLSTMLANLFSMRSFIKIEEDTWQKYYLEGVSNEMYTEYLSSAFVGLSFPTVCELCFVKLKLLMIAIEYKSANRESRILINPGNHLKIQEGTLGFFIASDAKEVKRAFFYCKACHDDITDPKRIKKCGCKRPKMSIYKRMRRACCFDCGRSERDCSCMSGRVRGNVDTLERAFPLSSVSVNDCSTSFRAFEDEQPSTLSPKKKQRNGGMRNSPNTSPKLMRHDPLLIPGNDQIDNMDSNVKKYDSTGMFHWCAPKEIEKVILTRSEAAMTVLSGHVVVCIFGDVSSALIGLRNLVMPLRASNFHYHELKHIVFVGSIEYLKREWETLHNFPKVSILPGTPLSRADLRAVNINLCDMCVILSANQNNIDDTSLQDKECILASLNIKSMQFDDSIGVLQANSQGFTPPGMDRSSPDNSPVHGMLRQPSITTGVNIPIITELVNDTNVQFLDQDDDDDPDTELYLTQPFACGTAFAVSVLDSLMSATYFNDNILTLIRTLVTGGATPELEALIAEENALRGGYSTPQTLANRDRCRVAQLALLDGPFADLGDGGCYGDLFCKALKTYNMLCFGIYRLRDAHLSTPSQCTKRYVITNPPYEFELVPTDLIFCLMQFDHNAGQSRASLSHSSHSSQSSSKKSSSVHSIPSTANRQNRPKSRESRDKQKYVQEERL
observable: EC40 (nM)
Enter your answer as a number in nM; do not include the unit.

Give its EC40 value. Item: `COc1ccc(Cl)cc1C(=O)Nc1ccncc1` 1120

I'd like to know its EC40. The molecule in question is `O=c1[nH]c2cc(C(F)(F)F)ccc2n1-c1cc(C(F)(F)F)ccc1O` 350

Sample `O=C(Nc1cc(Cl)ccc1O)c1ccccc1` — what was its EC40? 1410

EC40 lookup needed for `COc1ccc(Cl)cc1C(=O)Nc1ccccn1` , thanks. 4470

What does the record list as EC40 for `CCOc1ccccc1C(=O)Nc1cc(Cl)ccc1O` ? 210

Item under review: `COc1ccc(Cl)cc1C(=O)Nc1cccnc1` . Reported EC40? 310

Tell me the measured EC40 of `Cc1ccccc1C(=O)Nc1cc(Cl)ccc1O` , please. 2950

What does the record list as EC40 for `Cc1ccc(NC(=O)c2ccccc2O)c([N+](=O)[O-])c1` ? 560

====

target: Calcium-activated potassium channel alpha/beta 1 (Homo sapiens) (UniProt Q12791+Q16558); assay: Activation of human BKCA alpha/beta1 channel expressed in HEK293 cells assessed as increase of rubidium efflux after 10 mins; assay type: cell-based
observable: EC40 (µM)
Report as a plain number; the unit µM is understood.

Entry under review: `COc1ccc(Cl)cc1C(=O)Nc1ccccn1` . Reported EC40? 46.8

# query: EC40 of entry `CCOc1ccccc1C(=O)Nc1cc(Cl)ccc1O` 0.12

Form field: reported EC40 of `COc1ccc(Cl)cc1C(=O)Nc1ccncc1` 4.16

Given the compound `O=c1[nH]c2cc(C(F)(F)F)ccc2n1-c1cc(C(F)(F)F)ccc1O` , what is its reported EC40? 0.79

Item under review: `Cc1ccc(NC(=O)c2ccccc2O)c([N+](=O)[O-])c1` . Reported EC40? 1.41

Would you kindly share the measured EC40 for `COc1ccc(Cl)cc1C(=O)Nc1cccnc1` ? 3.47

// query EC40 value for entry `Cc1ccccc1C(=O)Nc1cc(Cl)ccc1O` 3.63

====

molecular target: Calcium-activated potassium channel alpha/beta 1 (Homo sapiens) (UniProt Q12791+Q16558); test: Activation of human BKCA alpha/beta1 channel expressed in HEK293 cells assessed as increase of rubidium efflux after 10 mins relative to control; format: cell-based
observable: Emax (%)
Supply the numeric figure in %, leaving out any unit text.

Item `O=C(Nc1cc(Cl)ccc1O)c1ccccc1` has what recorded Emax? 32.9

Reported Emax, compound `O=c1[nH]c2cc(C(F)(F)F)ccc2n1-c1cc(C(F)(F)F)ccc1O` : ____ 76.6

Any idea what Emax was measured for `COc1ccc(Cl)cc1C(=O)Nc1ccncc1` ? 65.1

May I ask what Emax has been recorded for `CCOc1ccccc1C(=O)Nc1cc(Cl)ccc1O` ? 99.5

Fill in the blank: the reported Emax of `COc1ccc(Cl)cc1C(=O)Nc1cccnc1` is ____. 68.8

Returns the measured Emax for the input compound. Input: `Cc1ccccc1C(=O)Nc1cc(Cl)ccc1O` 56.8

Please give the measured Emax for this compound: `COc1ccc(Cl)cc1C(=O)Nc1ccccn1` 42

Could you share which Emax value was measured for `Cc1ccc(NC(=O)c2ccccc2O)c([N+](=O)[O-])c1` ? 54.4

====

Hi there, I'd appreciate the recorded Emax for every entry that follows.
target: Calcium-activated potassium channel subunit alpha-1 (Homo sapiens) (UniProt Q12791); experiment: Activation of human BKCA alpha channel expressed in HEK293 cells assessed as increase of rubidium efflux after 10 mins relative to control; assay type: cell-based
Dear colleague, please return just the value in %, with no unit written.

Please report the recorded Emax for `Cc1ccccc1C(=O)Nc1cc(Cl)ccc1O` . 59.7

Find the recorded Emax belonging to `O=c1[nH]c2cc(C(F)(F)F)ccc2n1-c1cc(C(F)(F)F)ccc1O` and report it. 61.7

Given the molecule `CCOc1ccccc1C(=O)Nc1cc(Cl)ccc1O` , what is its reported Emax? 69.9

Endpoint output: Emax of `Cc1ccc(NC(=O)c2ccccc2O)c([N+](=O)[O-])c1` . Value? 86.4

Which Emax reading was recorded for the molecule `COc1ccc(Cl)cc1C(=O)Nc1ccncc1` ? 99.2

Given the entry `COc1ccc(Cl)cc1C(=O)Nc1cccnc1` , report its measured Emax. 72.5

So what does the record say about Emax for `O=C(Nc1cc(Cl)ccc1O)c1ccccc1` ? 62.5

Data request, read-out Emax, for `COc1ccc(Cl)cc1C(=O)Nc1ccccn1` 49.1
